biological target: wt PPARg LBD; experiment: Supplementary Figure 11: fluorescence anisotropy dissociation constants, wt PPARγ LBD (peptide not given); format: binding; details: data set FP K329A K347A 3 20 18, read-out: dissociation constant
measure: pKd
In textbook form, pKd equals minus log to base ten of the concentration in mol/L.

INPUT: Query (compound): `O=C(Nc1ccccc1)c1cc([N+](=O)[O-])ccc1Cl` ; field requested: pKd
OUTPUT: 6.60

---

molecular target: PPARg LBD DH12; assay: Supplementary Figure 11: fluorescence anisotropy dissociation constants, DH12 (peptide not given); format: binding; conditions: data set FP 3 15 18 Inverse agonism part 2, read-out: dissociation constant
measure: pKd
pKd (log units): -log10 of the concentration in mol/L.

INPUT: What value of pKd has been reported for the following molecule? `O=C(Nc1ccccc1)c1cc([N+](=O)[O-])ccc1Cl`
OUTPUT: 7.57
